Assay: NCI Yeast Anticancer Drug Screen. Data for the rad50 strain (AID 155);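 also: 0% = growth of vehicle-only cultures of the same strain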
Conditions: S. cerevisiae rad50 strain growth inhibition; at 50.0 µM; hits give high values
The panel holds about 79,000 compounds, 15% with a hit somewhere; the sample as a whole holds those more often.
Reported growth inhibition values for a set of compounds
All answers are understood in %, so give the number only.

Examples with answers:
| COMPOUND | OUTCOME_MEASURE | ASSAY_VALUE |
| --- | --- | --- |
| C[Si](C)(C)CSCCO | growth inhibition | -13.7 |
| O=c1[nH][nH]c(=O)c2nc3c(nc12)c1nc2c(=O)[nH][nH]c(=O)c2nc1c1nc2c(=O)[nH][nH]c(=O)c2nc31 | growth inhibition | -1.6 |
| NC(=O)CCn1ccc2ccccc21 | growth inhibition | 0.5 |
| O=c1[nH]nc(-c2ccc(Cl)cc2)c2cc(Cl)c(Cl)cc12 | growth inhibition | -6.45 |
| CCOC(OCC)c1ccccc1C | growth inhibition | 27.9 |

I am curious: what growth inhibition value has been reported for `O=CNc1ccccc1Cc1ccccc1` ? 13.2

###

Listing: growth inhibition of selected compounds
Test: NCI Yeast Anticancer Drug Screen. Data for the sgs1 mgt1 strain (AID 161);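 also: 0% = growth of cultures given vehicle only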
Settings: S. cerevisiae sgs1 mgt1 strain, at 50.0 µM, hits give high values
Compounds without any hit were thinned out: in the full panel of roughly 79,000, 15% have a hit.
Give just the number in %; leave the unit off.

| COMPOUND | growth inhibition, % |
| --- | --- |
| Cc1ccc(S(=O)(=O)NC(=O)NCc2cccc(Cl)c2)cc1 | 19.8 |
| CCC1=CCN(c2cc(C)ccn2)OC1c1ccc(OC)cc1 (stereo not drawn) | 48.4 |

// lookup growth inhibition for `CCCC1CCN(c2ccc([N+](=O)[O-])cc2[N+](=O)[O-])CC1` 9.65

###

Assay: NCI Yeast Anticancer Drug Screen. Data for the mlh1 rad18 strain (AID 175)
Conditions: S. cerevisiae mlh1 rad18 strain growth inhibition; at 50.0 µM; hits give high values
About 79,000 compounds went through this panel and 15% of them were active in at least one assay; those are over-represented in the sample as a whole.
OUTCOME_MEASURE: growth inhibition (%)
Please state the figure in %; there is no need to write the unit.

Example entries and their recorded answers appear below.
| COMPOUND | growth inhibition [%] |
| --- | --- |
| NC(=S)Nc1ccccc1-c1ccccc1 | 33.2 |
| COc1ccc(NC(=O)Nc2ccc(-c3ccc(NC(=O)Nc4ccc(OC)cc4)c(C)c3)cc2C)cc1 | -23.6 |
| CN(C)CCCNc1ccc2ncn3c4ccc(O)cc4c(=O)c1c23 | 7.9 |

Need growth inhibition, item OC(CCCCCCCCC(O)CN1CCCCC1)CN1CCCCC1 (stereo not drawn) 15.1

Fill in: growth inhibition of `O=C(ON(Cc1ccccc1)Cc1ccccc1)c1ccccc1` is ___ 10.8

Please report the recorded growth inhibition for O=C(O)C12C3CCC(C3)C1(C(=O)O)C1CCC2C1 (stereo not drawn) . -12.2

// returns reported growth inhibition for input `S=C(Cc1ccc2ccccc2c1)N1CCOCC1` 12.9

growth inhibition for `NCCCOCCO` ? 4.35

// growth inhibition lookup, key: `Cc1c(C(=O)NNc2ccccc2)n2c(=S)[nH]nc2c2ccccc12` 45.8

Field request: growth inhibition | item: `O=C(O)c1ccc2c(c1C(=O)O)C(=O)OC2(c1ccc(O)cc1)c1ccc(O)cc1` 4.85

I would be grateful if you could share the reported growth inhibition for `Cc1cc2c(c(C(=O)NCC(=O)N[C@@H](C)C(=O)OCc3ccccc3)c1)Oc1c(cc(C)cc1C(=O)NCC(=O)N[C@@H](C)C(=O)OCc1ccccc1)S2` . 33.2

Param item = `CC(=O)C[n+]1ccccc1Oc1ccccc1` ; retrieve measured growth inhibition. 3.75

Item under review: `CS(=O)(=O)OCc1nnn(-c2ccccc2)c1COS(C)(=O)=O` . Reported growth inhibition? -11.7
